Data credit: patent US5424456A

The following compounds are shown together with reported pIC50 values.
- Measured on: α-adrenergic (Rattus norvegicus)
- Construct: helically cut rat aortic strip; from tissue; host or cells: rat aorta (helically cut strip)
- Sequence (P23944 whole entry): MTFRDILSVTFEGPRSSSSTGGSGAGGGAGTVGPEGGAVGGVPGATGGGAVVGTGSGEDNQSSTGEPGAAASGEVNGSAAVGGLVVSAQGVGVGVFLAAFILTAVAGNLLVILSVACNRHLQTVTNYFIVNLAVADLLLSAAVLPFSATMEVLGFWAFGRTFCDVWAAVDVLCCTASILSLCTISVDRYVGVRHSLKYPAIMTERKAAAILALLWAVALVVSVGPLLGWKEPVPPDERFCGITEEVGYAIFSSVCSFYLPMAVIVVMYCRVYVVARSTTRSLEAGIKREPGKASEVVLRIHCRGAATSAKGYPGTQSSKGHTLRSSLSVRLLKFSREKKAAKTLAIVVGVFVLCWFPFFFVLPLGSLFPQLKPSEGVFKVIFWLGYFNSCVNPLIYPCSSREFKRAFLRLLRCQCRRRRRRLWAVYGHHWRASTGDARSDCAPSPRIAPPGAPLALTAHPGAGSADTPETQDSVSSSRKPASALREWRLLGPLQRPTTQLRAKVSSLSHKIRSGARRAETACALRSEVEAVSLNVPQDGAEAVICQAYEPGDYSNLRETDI
- Protocol: α-adrenergic blocking activity, norepinephrine-induced contraction of helically cut rat aortic strip
- Experimental parameters: 37° C., cumulative doses, read-out: IC50 (concentration causing 50% relaxation)
pIC50: −log10 of the molar value.
Endpoint name: pIC50

INSERT INTO results (compound, value) VALUES
  ('COc1ccc(C(C#N)(CCCNCC2COc3ccccc3O2)C(C)C)cc1OC (racemic)', 5.22),
  ('Cc1ccccc1C(C#N)(CCCNCC1COc2ccccc2O1)C(C)C (racemic)', 4.60),
  ('CC(C)C(C#N)(CCCNCC1COc2ccccc2O1)c1ccccc1 (racemic)', 4.12);
